target: P2Y purinoceptor 4 (Homo sapiens, UniProt P51582); assay: Agonist activity at human P2Y4 receptor expressed in human 1321N1 cells assessed as stimulation of [3H]inositol phosphate accumulation by liquid scintillation counting; format: functional, cell-based
Sequence (P51582 whole entry): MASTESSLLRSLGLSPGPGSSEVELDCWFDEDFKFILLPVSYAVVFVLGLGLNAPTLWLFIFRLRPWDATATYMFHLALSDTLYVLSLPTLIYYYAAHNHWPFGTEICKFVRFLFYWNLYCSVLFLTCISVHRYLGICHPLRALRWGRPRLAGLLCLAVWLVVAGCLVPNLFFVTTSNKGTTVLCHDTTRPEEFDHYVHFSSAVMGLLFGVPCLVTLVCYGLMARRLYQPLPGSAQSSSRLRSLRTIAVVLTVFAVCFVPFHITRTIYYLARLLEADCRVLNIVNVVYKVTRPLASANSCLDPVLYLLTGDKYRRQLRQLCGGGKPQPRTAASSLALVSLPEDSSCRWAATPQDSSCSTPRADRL
Measured Endpoint: EC50

Known results for compounds:
O=c1[nH]/c(=N\OCCCc2ccc(I)cc2)ccn1[C@@H]1O[C@H](COP(=O)(O)OP(=O)(O)OP(=O)(O)O)[C@@H](O)[C@H]1O
91 nM
O=c1[nH]/c(=N\OCCCc2ccc(Br)cc2)ccn1[C@@H]1O[C@H](COP(=O)(O)OP(=O)(O)OP(=O)(O)O)[C@@H](O)[C@H]1O
141 nM
O=C(CCCCCNC(=O)COc1ccc(/C=C/c2ccc3n2[B-](F)(F)[N+]2=C(c4cccs4)C=CC2=C3)cc1)NCCCn1cc(CCNC(=O)COc2ccc(CCCO/N=c3/ccn([C@@H]4O[C@H](COP(=O)(O)OP(=O)(O)OP(=O)(O)O)[C@@H](O)[C@H]4O)c(=O)[nH]3)cc2)nn1
70 nM

Task: Please give the measured EC50 for this compound: O=c1[nH]/c(=N\OCCCc2ccc([N+](=O)[O-])cc2)ccn1[C@@H]1O[C@H](COP(=O)(O)OP(=O)(O)OP(=O)(O)O)[C@@H](O)[C@H]1O
Output: 84 nM

Task: If you can, please state the reported EC50 value of COc1ccc(CCCO/N=c2/ccn([C@@H]3O[C@H](COP(=O)(O)OP(=O)(O)OP(=O)(O)O)[C@@H](O)[C@H]3O)c(=O)[nH]2)cc1 .
Output: 23 nM

Task: Which value of EC50 has been reported for N=c1ccc2c(-c3ccc(C(=O)NCCCCCCn4cc(CCNC(=O)COc5ccc(CCCO/N=c6/ccn([C@@H]7O[C@H](COP(=O)(O)OP(=O)(O)OP(=O)(O)O)[C@@H](O)[C@H]7O)c(=O)[nH]6)cc5)nn4)cc3C(=O)O)c3ccc(N)c(S(=O)(=O)O)c3oc-2c1S(=O)(=O)O in the records?
Output: 200 nM

Task: What does the record list as EC50 for O=c1[nH]/c(=N\OCCCc2cccc(I)c2)ccn1[C@@H]1O[C@H](COP(=O)(O)OP(=O)(O)OP(=O)(O)O)[C@@H](O)[C@H]1O ?
Output: 114 nM

Task: What value of EC50 has been reported for the following compound? O=c1[nH]/c(=N\OCCCc2cccc(F)c2)ccn1[C@@H]1O[C@H](COP(=O)(O)OP(=O)(O)OP(=O)(O)O)[C@@H](O)[C@H]1O
Output: 100 nM

Task: Value lookup for EC50; key = O=c1[nH]/c(=N\OCCCc2cccnc2)ccn1[C@@H]1O[C@H](COP(=O)(O)OP(=O)(O)OP(=O)(O)O)[C@@H](O)[C@H]1O
Output: 300 nM

Task: Recorded EC50 of O=c1[nH]/c(=N\OCCCc2ccc(F)cc2)ccn1[C@@H]1O[C@H](COP(=O)(O)OP(=O)(O)OP(=O)(O)O)[C@@H](O)[C@H]1O , please.
Output: 105 nM

Task: Please report the recorded EC50 for N#CC(CCO/N=c1/ccn([C@@H]2O[C@H](COP(=O)(O)OP(=O)(O)OP(=O)(O)O)[C@@H](O)[C@H]2O)c(=O)[nH]1)(c1ccccc1)c1ccccc1 .
Output: 47 nM

Task: // lookup EC50 for O=c1[nH]/c(=N\OCCOc2ccccc2)ccn1[C@@H]1O[C@H](COP(=O)(O)OP(=O)(O)OP(=O)(O)O)[C@@H](O)[C@H]1O
Output: 430 nM
